All figures here come from ChEMBL document CHEMBL2385012.

- Tested on: HepG2
- method-description: Cytotoxicity against human HepG2 cells assessed as growth inhibition after 48 hrs by MTT assay
- Assay type: functional, cell-based
- condition-description: HepG2, 48 h
Answer each item with its documented IC50.
One number for each entry, in µM.

COc1cccc2c1C(=O)c1c(O)c3c(c(O)c1C2=O)C[C@@](O)(C(=O)CO)C[C@@H]3O[C@H]1C[C@H](N)[C@H](O)[C@H](C)O1: 0.59
COC(CC1=C(C)[C@@H]2[C@@H](OC(C)=O)[C@H](OC(C)=O)[C@@]3(O)C(C)(C)CC[C@H](OC(C)=O)[C@]3(C)[C@H]2CC1=O)OC: 10.6
CO[C@@]12C[C@H]3[C@@H](C[C@H](OC(C)=O)[C@@]4(O)C(C)(C)C[C@H](OC(C)=O)[C@H](OC(C)=O)[C@]34C)[C@](C)(O)C1=CC(=O)O2: 47.2

Okay, now this molecule:
Asked: Item under review: COC(=O)CC1=C(C)C2=C[C@H](OC(C)=O)[C@@]3(O)C(C)(C)CC[C@H](OC(C)=O)[C@]3(C)[C@H]2CC1=O . Reported IC50?
Given back: 4.7

###

Kindly state pIC50 for each of the entries shown.
- Test system: MCF7
- method-description: Cytotoxicity against human MCF7 cells assessed as growth inhibition after 48 hrs by MTT assay
- Format: functional, cell-based
- condition-description: MCF7, 48 h
Give bare numbers, as −log10 of the molar value.

COc1cccc2c1C(=O)c1c(O)c3c(c(O)c1C2=O)C[C@@](O)(C(=O)CO)C[C@@H]3O[C@H]1C[C@H](N)[C@H](O)[C@H](C)O1 [DOXORUBICIN]: 6.03
CC(=O)O[C@@H]1[C@@H]2[C@H](C=C3OC(=O)C=C3[C@@]2(C)O)[C@@]2(C)[C@@H](OC(C)=O)CCC(C)(C)[C@]2(O)[C@H]1OC(C)=O: 4.39

Alright, here's another compound for you.
Asked: Enter reported pIC50 observed with MCF7 for CC(=O)OC1CC(C)(C)[C@]2(O)C[C@H](O)[C@H]3[C@@H](C)C4=CC(=O)O[C@]4(O)C[C@@H]3[C@@]2(C)[C@H]1OC(C)=O (some centres not stated)
Given back: 4.44

###

- System: MCF7
- method-description: Cytotoxicity against human MCF7 cells assessed as growth inhibition after 48 hrs by MTT assay
- Format: functional, cell-based
- condition-description: MCF7, 48 h
measurement-label: IC50 (µM)
One number for each entry, in µM.

I need IC50 for every entry listed below, if you could help.
1. COC(=O)CC1=C(C)C2=C[C@H](OC(C)=O)[C@@]3(O)C(C)(C)CC[C@H](OC(C)=O)[C@]3(C)[C@H]2CC1=O
2. COC(CC1=C(C)[C@@H]2[C@@H](OC(C)=O)[C@H](OC(C)=O)[C@@]3(O)C(C)(C)CC[C@H](OC(C)=O)[C@]3(C)[C@H]2CC1=O)OC

Given back:
1: 2.1; 2: 15.6

# per-item lookup of IC50; items listed below
1. COC(=O)CC1=C(C)[C@@H]2[C@@H](OC(C)=O)[C@H](OC(C)=O)[C@@]3(O)C(C)(C)CC[C@H](OC(C)=O)[C@]3(C)[C@H]2CC1=O
2. CO[C@@]12C[C@H]3[C@@H](CC[C@@]4(O)C(C)(C)C[C@H](OC(C)=O)[C@H](OC(C)=O)[C@]34C)[C@@H](C)C1=CC(=O)O2

Given back:
1: 7.9; 2: 46.1
